experimental system: Sphingosine 1-phosphate receptor 1 (Homo sapiens, UniProt P21453)
Sequence (P21453 whole entry): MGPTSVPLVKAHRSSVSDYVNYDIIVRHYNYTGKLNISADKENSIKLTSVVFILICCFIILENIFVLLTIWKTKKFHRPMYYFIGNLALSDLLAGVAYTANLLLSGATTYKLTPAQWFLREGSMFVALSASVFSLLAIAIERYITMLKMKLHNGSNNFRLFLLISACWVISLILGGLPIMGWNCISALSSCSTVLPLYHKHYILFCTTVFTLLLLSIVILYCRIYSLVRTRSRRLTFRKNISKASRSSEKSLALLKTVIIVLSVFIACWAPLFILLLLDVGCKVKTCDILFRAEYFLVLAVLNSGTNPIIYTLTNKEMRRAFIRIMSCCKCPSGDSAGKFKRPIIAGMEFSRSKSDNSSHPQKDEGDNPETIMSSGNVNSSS
test protocol: potentiators of S1P1 agonist response, dose response, cell-based, potentiator mode, 60K MLSMR set (AID 466)
condition label: inactive by the depositor's call
quantity: EC50 (µM)
Numbers only; they are read as µM.

Query block: I have this compound here, CC(=O)c1sc(NC(=O)C2(F)C(F)(F)C(F)(F)C(F)(F)C(F)(F)C2(F)F)nc1C , and I need its recorded EC50.
Result block: 31.1

Query block: I have this compound here, COc1ccccc1-n1nnnc1SCc1cc2c(cc1Br)OCO2 , and I need its recorded EC50.
Result block: 36.2

Query block: I have this compound here, Cc1ccccc1OCC(=O)Nc1ccc(N2CCN(C(=O)C(C)C)CC2)c(Cl)c1 , and I need its recorded EC50.
Result block: 15.2

Query block: I have this compound here, CCOC(=O)Cc1csc(NC(=O)c2ccc(Br)s2)n1 , and I need its recorded EC50.
Result block: 16.5

Query block: I have this compound here, CC(=O)N1CCCc2cc(S(=O)(=O)NCCC3=CCCCC3)ccc21 , and I need its recorded EC50.
Result block: 13.4

Query block: I have this compound here, O=C(c1ccco1)N1CCN(c2ncnc3c2[nH]c2ccc(Br)cc23)CC1 , and I need its recorded EC50.
Result block: 15.5

Query block: I have this compound here, Cc1ccc2nc(NC(=O)CSc3nc4c(c(=O)n3C)SC(C)C4)sc2c1 (centres undefined) , and I need its recorded EC50.
Result block: 16.5

Query block: I have this compound here, Cc1cccc(-c2nc(CSCC(=O)N3CCN(c4ccccn4)CC3)c(C)o2)c1 , and I need its recorded EC50.
Result block: 12.2

Query block: I have this compound here, COc1ccc2c(c1)CCc1c(C(=O)NC3CCCCC3)noc1-2 , and I need its recorded EC50.
Result block: 88.9

Query block: I have this compound here, CN1CCN(C(=O)CSc2nc(-c3cccs3)cc(-c3cccs3)c2C#N)CC1 , and I need its recorded EC50.
Result block: 12.9

Query block: I have this compound here, COc1ccc2c(c1)-c1nc(NC(=O)c3cccs3)sc1CC2 , and I need its recorded EC50.
Result block: 20.5

Query block: I have this compound here, CC(C)[C@H](NC(=O)OC(C)(C)C)c1nnc(SCC(=O)Nc2ccc(Br)cc2)o1 , and I need its recorded EC50.
Result block: 16.2

Query block: I have this compound here, COc1cccc(-c2csc(N3CCN(CC(=O)Nc4ccc5c(c4)OCO5)CC3)n2)c1 , and I need its recorded EC50.
Result block: 17.9

Query block: I have this compound here, CC1=CC(C)(C)Nc2ccc(OC(=O)c3ccco3)cc21 , and I need its recorded EC50.
Result block: 18

Query block: I have this compound here, Cc1cc(N2CCN(C(c3ccccc3)c3ccccc3)CC2)n2ncnc2n1 , and I need its recorded EC50.
Result block: 13.6

Query block: I have this compound here, CCCC(=O)c1ccc(N2CCN(C(=O)c3ccccc3Br)CC2)c(F)c1 , and I need its recorded EC50.
Result block: 12.1

Query block: I have this compound here, CC(C)(C)NC(=O)CSc1ncnc2c1nnn2Cc1ccccc1Cl , and I need its recorded EC50.
Result block: 12.7

Query block: I have this compound here, Cc1ccc(Cl)cc1N1CCN(C(=O)C2CCN(c3nnc(-n4cccc4)s3)CC2)CC1 , and I need its recorded EC50.
Result block: 43.3

Query block: I have this compound here, O=C1CC(N2CCN(C/C=C/c3ccccc3)CC2)C(=O)N1CCc1ccccc1 (centres undefined) , and I need its recorded EC50.
Result block: 19.3

Query block: I have this compound here, CCOc1nc(-c2ccccc2)ccc1-c1noc(-c2ccco2)n1 , and I need its recorded EC50.
Result block: 14.8

Query block: I have this compound here, Cc1cc(C(=O)N2CCN(C(c3ccccc3)c3ccccc3)CC2)no1 , and I need its recorded EC50.
Result block: 19.1

Query block: I have this compound here, O=S1(=O)C=C(Sc2nnc(-c3ccccc3)o2)c2ccccc21 , and I need its recorded EC50.
Result block: 23.5

Query block: I have this compound here, O=C(CSc1nnc(-c2ccc(Cl)cc2)n1Cc1ccco1)c1cccs1 , and I need its recorded EC50.
Result block: 13.8

Query block: I have this compound here, CC(=O)N1C=CN(C(C)=O)C(c2cn(C)c3ccccc23)C1c1cn(C)c2ccccc12 (centres undefined) , and I need its recorded EC50.
Result block: 20.9

Query block: I have this compound here, CN(CC1CCCO1)S(=O)(=O)c1ccc(C(=O)Nc2nc(-c3ccccn3)cs2)cc1 (centres undefined) , and I need its recorded EC50.
Result block: 24

Query block: I have this compound here, CCCCOc1ccc(S(=O)(=O)Nc2cc(OC)ccc2OC)cc1 , and I need its recorded EC50.
Result block: 12.1

Query block: I have this compound here, CSc1ccc(S(=O)(=O)Nc2ccc3c(c2)OCCO3)cc1 , and I need its recorded EC50.
Result block: 18

Query block: I have this compound here, CC(=O)Nc1ccc(S(=O)(=O)N2CCN(CCCOc3cc(C)ccc3C)CC2)cc1 , and I need its recorded EC50.
Result block: 17.5

Query block: I have this compound here, Cc1ccc(N2C(=O)c3cccc4c(N5CCN(C)CC5)ccc(c34)C2=O)c2cccnc12 , and I need its recorded EC50.
Result block: 33.2

Query block: I have this compound here, CC(C)Cc1cc(C(=O)Nc2cc(Br)ccc2O)no1 , and I need its recorded EC50.
Result block: 16.5

Query block: I have this compound here, Cc1onc(-c2ccccc2Cl)c1C(=O)Oc1cc(N)n(S(=O)(=O)c2ccc(F)cc2)n1 , and I need its recorded EC50.
Result block: 20

Query block: I have this compound here, Cn1cccc1C(=O)OCc1cc(Cl)cc2c1OCOC2 , and I need its recorded EC50.
Result block: 17.2

Query block: I have this compound here, Cc1nn(Cc2ccc(Cl)cc2)c(C)c1NC(=O)c1cc(-c2ccco2)on1 , and I need its recorded EC50.
Result block: 14.1

Query block: I have this compound here, CC1CC(C)(C)Nc2ccc(OC(=O)c3ccco3)cc21 (centres undefined) , and I need its recorded EC50.
Result block: 14

Cited source: BindingDB's records for doi:10.7270/Q2ZC817P
